Task for the reader: assign each of the following compounds its reported inhibition at 1 µM.
- Target: human recombinant histamine H1 receptor (Homo sapiens, UniProt P35367)
- Construct: expressed in transfected cells; host or cells: CHO cells
- Sequence (P35367 whole entry): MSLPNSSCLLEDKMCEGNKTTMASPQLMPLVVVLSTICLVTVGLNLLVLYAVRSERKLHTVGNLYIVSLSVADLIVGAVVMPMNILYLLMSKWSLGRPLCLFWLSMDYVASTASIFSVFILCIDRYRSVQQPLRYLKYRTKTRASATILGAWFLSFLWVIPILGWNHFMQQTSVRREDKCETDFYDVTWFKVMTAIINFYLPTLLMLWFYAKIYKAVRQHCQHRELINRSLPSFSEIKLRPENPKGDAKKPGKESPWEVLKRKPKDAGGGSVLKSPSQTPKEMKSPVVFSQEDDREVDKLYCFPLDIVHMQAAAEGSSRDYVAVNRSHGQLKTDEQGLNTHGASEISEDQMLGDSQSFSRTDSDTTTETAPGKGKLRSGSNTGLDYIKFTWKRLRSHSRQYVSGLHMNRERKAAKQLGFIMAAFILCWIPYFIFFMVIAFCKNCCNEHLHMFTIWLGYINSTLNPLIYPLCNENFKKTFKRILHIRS
- Experiment Notes: Histamine H1 radioligand binding ([3H]Pyrilamine)
- Assay Context: compound at 1 μM; inhibition of specific [3H]Pyrilamine binding; read-out: Histamine Binding (1 μM) H1, Percentage Inhibition
Report as a plain number; the unit % is understood.

IN: Data request, read-out inhibition at 1 µM, for Cc1ccc2c(c1)c1c(n2C#Cc2ccc(F)cc2)CC2CCC1N2C (stereo not drawn)
OUT: 2

IN: Please give the result for CN1C2CCC1c1c(n(CCC(N)=O)c3ccc(Cl)cc13)C2 (stereo not drawn) too.
OUT: 10

IN: Please give the result for Cc1ccc2c(c1)c1c(n2CCc2ccc(F)cc2)CC2CCC1N2C (stereo not drawn) too.
OUT: 98

IN: Please give the result for CN1C2CCC1c1c(n(CC(=O)N3CCOCC3)c3ccc(Cl)cc13)C2 (stereo not drawn) too.
OUT: 7

IN: Please give the result for Cc1ccc(CCn2c3c(c4ccccc42)C2CCC(C3)N2C)cn1 (stereo not drawn) too.
OUT: 54

IN: Please give the result for CN1C2CCC1c1c(n(C#Cc3ccc(F)cc3)c3ccc(Cl)cc13)C2 (stereo not drawn) too.
OUT: 57

IN: Please give the result for Cc1ccc2c(c1)c1c(n2CCCc2ccc(Cl)cc2)CC2CCC1N2C (stereo not drawn) too.
OUT: 99

IN: Please give the result for C/C(=C\n1c2c(c3cc(C)ccc31)C1CCC(C2)N1C)c1ccc(Cl)cc1 (stereo not drawn) too.
OUT: 23

IN: Please give the result for Cc1ccc2c(c1)c1c(n2CC(=O)N2CCCCC2)CC2CCC1N2C (stereo not drawn) too.
OUT: 4

IN: Please give the result for CN1C2CCC1c1c(n(CCCc3ccc(Cl)cc3)c3ccc(Cl)cc13)C2 (stereo not drawn) too.
OUT: 91

IN: Please give the result for Cc1cncc(CCn2c3c(c4cc(Cl)ccc42)C2CCC(C3)N2C)c1 (stereo not drawn) too.
OUT: 92

IN: Please give the result for COc1ccc(CCn2c3c(c4cc(Cl)ccc42)C2CCC(C3)N2C)cc1 (stereo not drawn) too.
OUT: 83

IN: Please give the result for CN1C2CCC1c1c(n(CCC(=O)N3CCNCC3)c3ccc(Cl)cc13)C2 (stereo not drawn) too.
OUT: 6

IN: Please give the result for CN1C2CCC1c1c(n(CCC(=O)N3CCSCC3)c3ccc(Cl)cc13)C2 (stereo not drawn) too.
OUT: 29

IN: Please give the result for CN1C2CCC1c1c(n(CCc3ccc(C(F)(F)F)nc3)c3cc(F)c(Cl)cc13)C2 (stereo not drawn) too.
OUT: 32

IN: Please give the result for CN1C2CCC1c1c(n(CC(=O)c3ccccc3)c3ccc(Cl)cc13)C2 (stereo not drawn) too.
OUT: 36

IN: Please give the result for CN1C2CCC1c1c(n(CCC(=O)N3CCS(=O)(=O)CC3)c3ccc(Cl)cc13)C2 (stereo not drawn) too.
OUT: 2

IN: Please give the result for C/C(=C\n1c2c(c3cc(Cl)ccc31)C1CCC(C2)N1C)c1ccc(Cl)cc1 (stereo not drawn) too.
OUT: 82

====

- Target: human recombinant serotonin (5-Hydroxytryptamine) 5-HT2B receptor (Homo sapiens)
- Construct: expressed in transfected cells; host or cells: CHO-K1 cells
- Sequence (P41595 whole entry): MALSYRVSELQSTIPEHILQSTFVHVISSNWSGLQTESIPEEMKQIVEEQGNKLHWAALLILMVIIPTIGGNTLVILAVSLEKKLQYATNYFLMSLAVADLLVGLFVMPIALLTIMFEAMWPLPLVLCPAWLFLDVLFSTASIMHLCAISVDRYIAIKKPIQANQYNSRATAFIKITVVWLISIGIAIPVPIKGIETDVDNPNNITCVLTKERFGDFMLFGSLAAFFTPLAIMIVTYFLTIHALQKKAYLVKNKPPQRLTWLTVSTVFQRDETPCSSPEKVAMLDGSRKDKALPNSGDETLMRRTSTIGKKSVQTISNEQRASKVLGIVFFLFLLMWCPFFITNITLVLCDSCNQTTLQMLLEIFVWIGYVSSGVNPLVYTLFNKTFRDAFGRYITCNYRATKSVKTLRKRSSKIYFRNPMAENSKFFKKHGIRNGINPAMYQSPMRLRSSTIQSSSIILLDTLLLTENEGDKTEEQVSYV
- Experiment Notes: Serotonin 5-HT2B radioligand binding ([3H]LSD)
- Assay Context: read-out: Serotonin 5-HT2B, inhibition of ligand binding (1 μM)
Readout Label: inhibition at 1 µM (%)
Report as a plain number; the unit % is understood.

IN: Data request, read-out inhibition at 1 µM, for Cc1ccc2c(c1)c1c(n2CCc2ccccc2)CC2CCC1N2C (stereo not shown)
OUT: 71

IN: Please give the result for CN1C2CCC1c1c(n(CCc3ccc(Cl)cc3)c3ccc(Cl)cc13)C2 (stereo not shown) too.
OUT: 32

IN: Please give the result for CN1C2CCC1c1c(n(CCc3ccc(F)cc3)c3ccc(Cl)cc13)C2 (stereo not shown) too.
OUT: 48

IN: Please give the result for Cc1ccc2c(c1)c1c(n2CCc2ccccc2)CC2CCCC1N2C (stereo not shown) too.
OUT: -11

====

- Target: human recombinant serotonin (5-Hydroxytryptamine) 5-HT6 receptor (Homo sapiens)
- Construct: expressed in transfected cells; host or cells: human HeLa cells
- Sequence (P50406 whole entry): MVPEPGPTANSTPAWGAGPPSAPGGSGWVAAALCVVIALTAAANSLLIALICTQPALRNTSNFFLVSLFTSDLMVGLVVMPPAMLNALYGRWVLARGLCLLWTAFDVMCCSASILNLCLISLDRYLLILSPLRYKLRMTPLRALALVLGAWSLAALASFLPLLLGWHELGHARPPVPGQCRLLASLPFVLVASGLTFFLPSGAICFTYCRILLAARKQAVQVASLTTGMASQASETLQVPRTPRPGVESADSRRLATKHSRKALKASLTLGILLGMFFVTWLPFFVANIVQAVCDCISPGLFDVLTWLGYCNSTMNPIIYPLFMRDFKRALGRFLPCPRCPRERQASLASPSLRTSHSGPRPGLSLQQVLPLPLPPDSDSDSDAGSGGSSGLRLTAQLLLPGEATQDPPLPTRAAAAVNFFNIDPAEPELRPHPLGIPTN
- Experiment Notes: Serotonin 5-HT6 radioligand binding ([3H]LSD)
- Assay Context: read-out: Serotonin 5-HT6, inhibition of ligand binding (1 μM)
Kindly return 1 (yes) if reported inhibition at 1 µM is no lower than 20%; return 0 (no) if it is lower.

IN: Does the reported inhibition at 1 µM for COc1ccc(C#Cn2c3c(c4cc(Cl)ccc42)C2CCC(C3)N2C)cc1F (centres unmarked) fall at or above the 20% mark?
OUT: 1 (yes)

IN: Please give the result for CN1C2CCC1c1c(n(CCC(=O)N3CCS(=O)(=O)CC3)c3ccc(Cl)cc13)C2 (centres unmarked) too.
OUT: 0 (no)

IN: Please give the result for CN1C2CCC1c1c(n(CCc3ccc(F)cc3)c3ccc(Cl)cc13)C2 (centres unmarked) too.
OUT: 1 (yes)

IN: Please give the result for Cc1ccc2c(c1)c1c(n2C#Cc2ccc(F)cc2)CC2CCC1N2C (centres unmarked) too.
OUT: 1 (yes)

IN: Please give the result for CN1C2CCC1c1c(n(CCc3ccc(Cl)cc3)c3ccc(Cl)cc13)C2 (centres unmarked) too.
OUT: 1 (yes)

====

- Target: human recombinant adrenergic α2A receptor (Homo sapiens, UniProt P08913)
- Construct: expressed in transfected cells; host or cells: insect Sf9 cells
- Sequence (P08913 whole entry): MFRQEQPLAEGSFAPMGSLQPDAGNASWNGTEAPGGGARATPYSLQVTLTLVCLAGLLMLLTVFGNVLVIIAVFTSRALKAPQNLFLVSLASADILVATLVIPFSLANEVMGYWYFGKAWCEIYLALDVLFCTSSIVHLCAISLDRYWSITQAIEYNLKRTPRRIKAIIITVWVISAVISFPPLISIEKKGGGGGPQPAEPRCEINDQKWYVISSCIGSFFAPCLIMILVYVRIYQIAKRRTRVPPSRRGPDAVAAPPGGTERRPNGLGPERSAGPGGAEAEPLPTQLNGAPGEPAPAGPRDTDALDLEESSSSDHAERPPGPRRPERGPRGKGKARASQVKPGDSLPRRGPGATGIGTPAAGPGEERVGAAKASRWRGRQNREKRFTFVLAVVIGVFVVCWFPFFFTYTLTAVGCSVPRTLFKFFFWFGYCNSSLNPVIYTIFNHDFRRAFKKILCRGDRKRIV
- Experiment Notes: Adrenergic α2A radioligand binding ([3H]MK-912)
- Assay Context: 1 μM; read-out: Adrenergic α2A, inhibition of ligand binding (1 μM)
Task for the reader: assign each of the following molecules its reported inhibition at 1 µM.
Report as a plain number; the unit % is understood.

IN: Data request, read-out inhibition at 1 µM, for CN1C2CCC1c1c(n(C#Cc3ccc(F)cc3)c3ccc(Cl)cc13)C2 (stereo not drawn)
OUT: 95

IN: Please give the result for Cc1ccc2c(c1)c1c(n2CC(C)(O)c2ccc(Cl)cc2)CC2CCC1N2C (stereo not drawn) too.
OUT: 75

IN: Please give the result for Cc1cncc(CCn2c3c(c4cc(C)ccc42)C2CCC(C3)N2C)c1 (stereo not drawn) too.
OUT: 26

IN: Please give the result for CN1C2CCC1c1c(n(CCCc3ccc(C(F)(F)F)nc3)c3ccc(Cl)cc13)C2 (stereo not drawn) too.
OUT: 10

IN: Please give the result for Cc1ccc(CCn2c3c(c4ccccc42)C2CCC(C3)N2C)cn1 (stereo not drawn) too.
OUT: 15

IN: Please give the result for C/C(=C\n1c2c(c3cc(C)ccc31)C1CCC(C2)N1C)c1ccc(Cl)cc1 (stereo not drawn) too.
OUT: 83

IN: Please give the result for CN1C2CCC1c1c(n(CCc3ccc(Cl)cc3)c3ccc(Cl)cc13)C2 (stereo not drawn) too.
OUT: 98

IN: Please give the result for C/C(=C\n1c2c(c3cc(Cl)ccc31)C1CCC(C2)N1C)c1ccc(F)cc1 (stereo not drawn) too.
OUT: 95

IN: Please give the result for COc1ccc(CCn2c3c(c4cc(Cl)ccc42)C2CCC(C3)N2C)cc1 (stereo not drawn) too.
OUT: 76

IN: Please give the result for CN1C2CCC1c1c(n(CCC(=O)N3CCSCC3)c3ccc(Cl)cc13)C2 (stereo not drawn) too.
OUT: 0

IN: Please give the result for Cc1ccc2c(c1)c1c(n2CCc2ccccc2)CC2CCC1N2C (stereo not drawn) too.
OUT: 100

IN: Please give the result for Cc1ccc2c(c1)c1c(n2CCC#N)CC2CCC1N2C (stereo not drawn) too.
OUT: 57

IN: Please give the result for Cc1ccc(C(O)Cn2c3c(c4cc(Cl)ccc42)C2CCC(C3)N2C)cn1 (stereo not drawn) too.
OUT: 46

IN: Please give the result for CN1C2CCC1c1c(n(CCC(=O)N3CC[S+]([O-])CC3)c3ccc(Cl)cc13)C2 (stereo not drawn) too.
OUT: -7

IN: Please give the result for COc1ccc(CCn2c3c(c4cc(C)ccc42)C2CCC(C3)N2C)cc1 (stereo not drawn) too.
OUT: 77

IN: Please give the result for CN1[C@@H]2CC[C@H]1c1c(n(CCc3ccc(F)cc3)c3ccc(F)cc13)C2 too.
OUT: 56

IN: Please give the result for CN1[C@@H]2CC[C@H]1c1c(n(CCc3ccc(C(F)(F)F)nc3)c3ccccc13)C2 too.
OUT: 26

IN: Please give the result for Cc1ncc(CCn2c3c(c4cc(Cl)ccc42)C2CCC(C3)N2C)cn1 (stereo not drawn) too.
OUT: 5

====

- Target: human recombinant histamine H2 receptor (Homo sapiens, UniProt P25021)
- Construct: expressed in transfected cells; host or cells: CHO-K1 cells
- Sequence (P25021 whole entry): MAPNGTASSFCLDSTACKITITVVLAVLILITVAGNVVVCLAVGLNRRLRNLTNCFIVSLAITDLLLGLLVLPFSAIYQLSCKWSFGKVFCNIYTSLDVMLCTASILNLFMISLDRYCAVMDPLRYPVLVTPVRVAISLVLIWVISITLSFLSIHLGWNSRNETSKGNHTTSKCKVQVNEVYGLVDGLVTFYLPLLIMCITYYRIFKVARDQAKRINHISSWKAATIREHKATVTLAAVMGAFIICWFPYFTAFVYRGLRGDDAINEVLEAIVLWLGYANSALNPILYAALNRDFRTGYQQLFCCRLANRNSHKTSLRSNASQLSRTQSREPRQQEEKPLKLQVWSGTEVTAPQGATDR
- Experiment Notes: Histamine H2 radioligand binding ([125I]Aminopotentidine)
- Assay Context: compound at 1 μM; inhibition of specific [125I]Aminopotentidine binding; read-out: Histamine Binding (1 μM) H2, Percentage Inhibition
Readout Label: inhibition at 1 µM (%)
Report as a plain number; the unit % is understood.

IN: Data request, read-out inhibition at 1 µM, for CN1C2CCC1c1c(n(CCC(=O)N3CCSCC3)c3ccc(Cl)cc13)C2 (centres unmarked) [Compound 12]
OUT: -2

IN: Please give the result for C/C(=C\n1c2c(c3cc(Cl)ccc31)C1CCC(C2)N1C)c1ccc(Cl)cc1 (centres unmarked) [Compound 125] too.
OUT: 96

IN: Please give the result for Cc1ccc2c(c1)c1c(n2CCc2cccnc2)CC2CCC1N2C (centres unmarked) [Compound 86] too.
OUT: 26

IN: Please give the result for CN1[C@@H]2CC[C@H]1c1c(n(CCc3ccc(C(F)(F)F)nc3)c3ccccc13)C2 [Compound 97] too.
OUT: 11

IN: Please give the result for CN1C2CCC1c1c(n(CCc3ccc(F)cc3)c3ccc(F)cc13)C2 (centres unmarked) [Compound 35] too.
OUT: 27

IN: Please give the result for CN1C2CCC1c1c(n(CCc3ccc(Cl)cc3)c3ccc(Cl)cc13)C2 (centres unmarked) [Compound 58] too.
OUT: 52

IN: Please give the result for CN1C2CCC1c1c(n(CCC(N)=O)c3ccc(Cl)cc13)C2 (centres unmarked) [Compound 73] too.
OUT: -1

IN: Please give the result for Cc1ccc(CCCn2c3c(c4cc(Cl)ccc42)C2CCC(C3)N2C)cn1 (centres unmarked) [Compound 38] too.
OUT: 9

IN: Please give the result for COc1ccc(/C(C)=C/n2c3c(c4cc(Cl)ccc42)C2CCC(C3)N2C)cc1F (centres unmarked) [Compound 136] too.
OUT: 100

IN: Please give the result for C/C(=C\n1c2c(c3cc(C)ccc31)C1CCC(C2)N1C)c1ccc(F)cc1 (centres unmarked) [Compound 124] too.
OUT: 79

IN: Please give the result for Cc1ccc2c(c1)c1c(n2CC(O)c2ccc(C)nc2)CC2CCC1N2C (centres unmarked) [Compound 91] too.
OUT: 9

IN: Please give the result for Cc1ccc2c(c1)c1c(n2CCc2cncc(Cl)c2)CC2CCC1N2C (centres unmarked) [Compound 88] too.
OUT: 5

IN: Please give the result for C/C(=C\n1c2c(c3cc(C)ccc31)C1CCC(C2)N1C)c1ccc(Cl)cc1Cl (centres unmarked) [Compound 163] too.
OUT: 66

IN: Please give the result for CN1C2CCC1c1c(n(C#Cc3ccc(Cl)cc3)c3ccc(Cl)cc13)C2 (centres unmarked) [Compound 142] too.
OUT: 71

IN: Please give the result for COc1ccc(C#Cn2c3c(c4cc(C)ccc42)C2CCC(C3)N2C)cc1F (centres unmarked) [Compound 155] too.
OUT: 84

IN: Please give the result for Cc1ccc2c(c1)c1c(n2CCc2ccccc2)CC2CCC1N2C (centres unmarked) [Compound 2] too.
OUT: 43

IN: Please give the result for Cc1ccc2c(c1)c1c(n2C(=O)Cc2ccc(Cl)cc2)CC2CCC1N2C (centres unmarked) [Compound 162] too.
OUT: 47

IN: Please give the result for Cc1ncc(CCn2c3c(c4cc(Cl)ccc42)C2CCC(C3)N2C)cn1 (centres unmarked) [Compound 82] too.
OUT: -8

IN: Please give the result for CN1[C@@H]2CC[C@H]1c1c(n(CCc3ccc(F)cc3)c3ccc(F)cc13)C2 [Compound 94] too.
OUT: 4

IN: Please give the result for Cc1ccc2c(c1)c1c(n2CCCc2ccc(Cl)cc2)CC2CCC1N2C (centres unmarked) [Compound 85] too.
OUT: 81

IN: Please give the result for CN1C2CCC1c1c(n(CC(=O)N3CCCC3)c3ccc(Cl)cc13)C2 (centres unmarked) [Compound 60] too.
OUT: 3

IN: Please give the result for CN1C2CCC1c1c(n(CCc3ccc(C(F)(F)F)nc3)c3cc(F)c(Cl)cc13)C2 (centres unmarked) [Compound 77] too.
OUT: 7

IN: Please give the result for CN1[C@@H]2CC[C@H]1c1c(n(CC(=O)N3CCCCC3)c3ccccc13)C2 [Compound 101] too.
OUT: 19

IN: Please give the result for CN1C2CCC1c1c(n(CCc3cncc(Cl)c3)c3ccc(Cl)cc13)C2 (centres unmarked) [Compound 87] too.
OUT: 7

IN: Please give the result for CN1C2CCC1c1c(n(CCC(=O)N3CCNC(=O)C3)c3ccc(Cl)cc13)C2 (centres unmarked) [Compound 3] too.
OUT: 2

IN: Please give the result for CN1C2CCC1c1c(n(CCC(=O)N3CCCC3)c3ccc(Cl)cc13)C2 (centres unmarked) [Compound 5] too.
OUT: -9

IN: Please give the result for CN1C2CCC1c1c(n(CC(=O)N3CCOCC3)c3ccc(Cl)cc13)C2 (centres unmarked) [Compound 59] too.
OUT: 15

IN: Please give the result for Cc1ccc2c(c1)c1c(n2CCC#N)CC2CCC1N2C (centres unmarked) [Compound 103] too.
OUT: 1

IN: Please give the result for C/C(=C\n1c2c(c3cc(C)ccc31)C1CCC(C2)N1C)c1cccnc1 (centres unmarked) [Compound 129] too.
OUT: 26

IN: Please give the result for COc1ccc(C#Cn2c3c(c4cc(Cl)ccc42)C2CCC(C3)N2C)cc1F (centres unmarked) [Compound 154] too.
OUT: 87

IN: Please give the result for CN1C2CCC1c1c(n(CCc3ccc(F)cc3)c3ccc(Cl)cc13)C2 (centres unmarked) [Compound 57] too.
OUT: 37

IN: Please give the result for Cc1ccc2c(c1)c1c(n2CCc2cnc(C)nc2)CC2CCC1N2C (centres unmarked) [Compound 81] too.
OUT: -9

IN: Please give the result for CC(=O)N1CCN(C(=O)CCn2c3c(c4cc(Cl)ccc42)C2CCC(C3)N2C)CC1 (centres unmarked) [Compound 8] too.
OUT: 9

IN: Please give the result for CN1C2CCC1c1c(n(CCc3ccc(C(F)(F)F)nc3)c3ccc(Cl)cc13)C2 (centres unmarked) [Compound 34] too.
OUT: 12

IN: Please give the result for CN1C2CCC1c1c(n(CCc3ccc(Cl)cc3)c3ccc(F)cc13)C2 (centres unmarked) [Compound 33] too.
OUT: 18
